Target: monomeric P301S 2N4R tau, pHrodo-labelled (human, UniProt P10636 1-758, pHrodo Red maleimide label)
Sequence (P10636 other isoform, or with tags, fused parts or gaps P301S P301S): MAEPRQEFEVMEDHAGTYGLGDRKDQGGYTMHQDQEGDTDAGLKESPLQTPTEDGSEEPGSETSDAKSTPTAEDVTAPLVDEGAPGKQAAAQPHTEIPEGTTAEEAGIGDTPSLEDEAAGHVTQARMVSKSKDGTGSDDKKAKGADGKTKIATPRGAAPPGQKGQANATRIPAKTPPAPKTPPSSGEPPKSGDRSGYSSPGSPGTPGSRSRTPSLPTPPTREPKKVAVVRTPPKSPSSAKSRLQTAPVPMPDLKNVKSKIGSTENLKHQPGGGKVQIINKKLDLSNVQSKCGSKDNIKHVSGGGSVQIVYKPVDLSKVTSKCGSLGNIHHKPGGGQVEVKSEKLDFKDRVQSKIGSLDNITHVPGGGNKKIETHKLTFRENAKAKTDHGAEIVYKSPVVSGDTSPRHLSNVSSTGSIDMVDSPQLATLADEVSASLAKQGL
Assay: cell-based or functional assay
This section presents binders with their documented inhibition of monomeric tau uptake into human astrocytes values.
outcome.measure: inhibition of monomeric tau uptake into human astrocytes (%)

{"columns": ["binder", "val"],
 "data": [
  ["#44_VH4VK4_H02/pVL (antibody, V domains shown, also called Clone VH4_H02; #44_VH4_H02) VH: QVQLQESGPGLVKPSETLSLTCTVSGIDLSSYAMAWVRQAPGKGLEWIGCIDRRGGTFYASWVKGRFTISKDTSKTTVDLQMTSLTAEDTATYFCARDRGDFDVWGQGTLVTVSS VL: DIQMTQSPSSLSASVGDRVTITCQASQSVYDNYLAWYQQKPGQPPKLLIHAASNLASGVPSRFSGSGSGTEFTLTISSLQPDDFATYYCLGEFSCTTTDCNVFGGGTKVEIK", 64.7],
  ["#44_VH4VK4 humanised hIgG1 (antibody, V domains shown, also called VH4Vκ4; pVH/pVL) VH: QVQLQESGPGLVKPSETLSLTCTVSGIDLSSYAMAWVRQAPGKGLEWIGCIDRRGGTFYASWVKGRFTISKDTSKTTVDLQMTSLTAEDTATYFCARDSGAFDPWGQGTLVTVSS VL: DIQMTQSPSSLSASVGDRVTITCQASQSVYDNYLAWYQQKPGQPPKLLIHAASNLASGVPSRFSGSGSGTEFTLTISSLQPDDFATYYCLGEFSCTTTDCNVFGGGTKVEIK", 52.3],
  ["#44_VH4VK4_H01/pVL (antibody, V domains shown, also called Clone VH4_H01; #44_VH4_H01) VH: QVQLQESGPGLVKPSETLSLTCTVSGIDLSSYAMAWVRQAPGKGLEWIGCIDRRGGTFYASWVKGRFTISKDTSKTTVDLQMTSLTAEDTATYFCARDVGSFDVWGQGTLVTVSS VL: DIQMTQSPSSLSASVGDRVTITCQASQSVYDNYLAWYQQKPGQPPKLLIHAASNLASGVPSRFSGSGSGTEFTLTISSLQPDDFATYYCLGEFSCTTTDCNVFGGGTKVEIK", 67.5],
  ["#44_VH4VK4_H06/pVL (antibody, V domains shown, also called Clone VH4_H06; #44_VH4_H06) VH: QVQLQESGPGLVKPSETLSLTCTVSGIDLSSYAMAWVRQAPGKGLEWIGVIDAAGHTFYASWVKGRFTISKDTSKTTVDLQMTSLTAEDTATYFCARDSGTFDPWGQGTLVTVSS VL: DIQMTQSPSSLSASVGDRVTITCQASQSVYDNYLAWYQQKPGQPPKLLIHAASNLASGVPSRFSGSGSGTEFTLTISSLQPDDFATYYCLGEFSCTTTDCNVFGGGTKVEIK", 35.1]
]}
